Data provenance is patent US20250019427A1.

Measured Kd, listed per entry.
- system: T1, Cyno GDF15 Fc (cyno, UniProt G7PWZ3 193-308)
- T1 construct: also called cyno GDF15-Fc fusion
- T1 sequence: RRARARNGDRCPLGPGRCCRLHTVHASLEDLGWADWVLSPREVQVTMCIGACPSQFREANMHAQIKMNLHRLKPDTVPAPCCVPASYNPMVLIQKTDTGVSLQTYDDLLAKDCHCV
- assaySummary: Octet BLI, Fab monovalent
Please state the figure in nM; there is no need to write the unit.

Answered cases to consult:
What does the data say about its Kd? Entry: Clone I Fab (Fab, V domains shown, Fab format) VH: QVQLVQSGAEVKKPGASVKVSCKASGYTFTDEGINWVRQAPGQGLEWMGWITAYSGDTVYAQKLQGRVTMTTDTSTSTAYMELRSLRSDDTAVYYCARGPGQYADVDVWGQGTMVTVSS VL: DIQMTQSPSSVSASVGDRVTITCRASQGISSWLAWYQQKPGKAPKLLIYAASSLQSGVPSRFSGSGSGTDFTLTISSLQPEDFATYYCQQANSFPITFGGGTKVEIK
1.38

Given Clone L Fab (Fab, V domains shown, Fab format) VH: QVQLVQSGAEVKKPGASVKVSCKASGYTFASYDIIWVRQAPGQGLEWMGWISALSGDTVYAQKLQGRVTMTTDTSTSTAYMELRSLRSDDTAVYYCARTRHDTSGIRFDYWGQGTLVTVSS VL: DIQMTQSPSSVSASVGDRVTITCRASQGIDSWLAWYQQKPGKAPKLLIYAASSLQSGVPSRFSGSGSGTDFTLTISSLQPEDFATYYCQQVHSFPITFGGGTKVEIK , state its recorded Kd.
1.56

Kd lookup needed for Clone M Fab (Fab, V domains shown, Fab format) VH: QVQLVQSGAEVKKPGASVKVSCKASGYTFDSYGINWVRQAPGQGLEWMGWISAYSGDTAYAQELQGRVTMTTDTSTSTAYMELRSLRSDDTAVYYCVRDTQYGGSPYWGQGTLVTVSS VL: EIVMTQSPATLSVSPGERATLSCRASQSVSSNLAWYQQKPGQAPRLLIYGASTRATGIPARFSGSGSGTEFTLTISSLQSEDFAVYYCQQYNNWPITFGGGTKVEIK , thanks.
1.91

Requested read-out: Kd. Entry: Clone E Fab (Fab, V domains shown, Fab format) VH: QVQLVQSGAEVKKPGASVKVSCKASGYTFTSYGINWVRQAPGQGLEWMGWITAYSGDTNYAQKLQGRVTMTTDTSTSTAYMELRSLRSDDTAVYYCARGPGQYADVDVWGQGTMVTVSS VL: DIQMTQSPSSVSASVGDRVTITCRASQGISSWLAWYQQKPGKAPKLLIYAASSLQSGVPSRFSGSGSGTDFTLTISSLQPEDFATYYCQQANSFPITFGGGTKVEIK
0.413

We next turn to a different binder, shown below.
Query (binder): Clone T Fab (Fab, V domains shown, Fab format) VH: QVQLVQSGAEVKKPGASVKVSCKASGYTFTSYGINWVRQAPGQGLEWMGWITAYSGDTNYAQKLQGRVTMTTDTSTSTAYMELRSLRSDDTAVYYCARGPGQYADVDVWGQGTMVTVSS VL: DIQMTQSPSSVSASVGDRVTITCRASQGISSWLAWYQQKPGKAPKLLIYAASSLQSGVPSRFSGSGSGTDFTLTISSLQPEDFATYYCQQASQFPITFGGGTKVEIK ; field requested: Kd
0.369
